- Tested on: C. parvum strain UGA1
- protocol: C. parvum growth inhibition assay (Nluc luminescence in HCT-8 cells)
- Type: cell-based, Cryptosporidium parvum
- condition details: Cryptosporidium parvum, HCT-8; single point inhibition @ 10 uM; read-out: % inh @ 10 uM C. parvum
So I've got a bunch of compounds here, and I need their inhibition at 10 µM values.

Item: Cc1cc(-c2cc3cnc(N[C@@H]4CCOC4)cc3[nH]2)ccn1 [Example 13] | inhibition at 10 µM: 67 to 100%

Form: compound = Cn1cc(Nc2cc3[nH]c(-c4ccnc(C#N)c4)cc3cn2)cn1 [Example 56] ; inhibition at 10 µM = 67 to 100%

inhibition at 10 µM recorded for this compound, Cn1cc(C(=O)Nc2cc3c(cn2)cc(-c2ccnc(NCC4CC4)n2)n3C)cn1 [Example 159] , is 67 to 100%

# inhibition at 10 µM of O=C(Nc1cc2[nH]c(-c3ccnc(C(F)(F)F)n3)cc2cn1)[C@H]1C[C@H](O)C1 [Example 92] = 0 to 33%

The recorded inhibition at 10 µM for COc1nccc(-c2cc3cnc(NC(=O)C4C5CCCC54)cc3[nH]2)n1 (stereo not drawn) [Example 176] is 67 to 100%

Short answer for CC(C)C(=O)Nc1cc2[nH]c(-c3ccncc3)cc2cn1 [Example 78] : inhibition at 10 µM was 67 to 100%

inhibition at 10 µM recorded for this compound, Cc1cc(-c2cc3cnc(NC(=O)CC4COC4)cc3[nH]2)ccn1 [Example 165] , is 67 to 100%

response.value for CC(C)n1cc(C(=O)Nc2cc3[nH]c(-c4ccnc(OC(C)C(F)(F)F)n4)cc3cn2)cn1 (stereo not drawn) [Example 149] (field: inhibition at 10 µM) = 67 to 100%

response.value for c1ccc(Nc2cc3[nH]c(-c4cccnc4)cc3cn2)cc1 [Example 189] (field: inhibition at 10 µM) = 67 to 100%

For Cn1cc(C(=O)Nc2cc3c(cn2)cc(-c2ccnc(NCC(F)(F)F)n2)n3CCO)cn1 [Example 80] the compound record lists inhibition at 10 µM as 33 to 66%

# inhibition at 10 µM (compound: CC(C)n1cc(C(=O)Nc2cc3[nH]c(-c4ccncc4)cc3cn2)cn1 [Example 162] ) is 67 to 100%

inhibition at 10 µM in this record for CC(C)CC(=O)Nc1cc2[nH]c(-c3ccncc3)cc2cn1 [Example 134] : 67 to 100%

Field inhibition at 10 µM (entry CC(C)n1cc(C(=O)Nc2cc3c(cn2)cc(-c2ccnc(NCC4CC4)n2)n3C)cn1 [Example 131] ) reads 67 to 100%

For this compound ( COc1nccc(-c2cc3cnc(NC(=O)[C@H]4C[C@@H](O)C4)cc3[nH]2)n1 [Example 167] ), measured inhibition at 10 µM is 67 to 100%

Measured inhibition at 10 µM of COc1cc(Nc2cc3[nH]c(C#N)cc3cn2)cc(C2CCOCC2)c1 [Example 148] : 67 to 100%

Entry under test: CNC(=O)c1ccc(Nc2cc3[nH]c(-c4ccnc(C)c4)cc3cn2)cc1 [Example 190] . Its inhibition at 10 µM was 67 to 100%

Documented inhibition at 10 µM of N#Cc1cc(-c2cc3cnc(Nc4cccc(-c5nnc[nH]5)c4)cc3[nH]2)ccn1 [Example 79] : 67 to 100%

// field: inhibition at 10 µM; key: COc1nccc(-c2cc3cnc(NC(=O)CC4COC4)cc3n2C)n1 [Example 87] ; value = 0 to 33%
